System: PIP tumor and PC3 tumor
Assay: Biodistribution of 125I labeled compounds 17, 18, 26 and 27 in tumor bearing nude mice
Assay type: in vivo
Conditions: 4 h, ratio
Below is a list of entries, each paired with its recorded PIP/muscle value.

{"compound": "O=C(O)CC[C@H](NC(=O)N[C@@H](CCCCNC(=O)[C@H](Cc1ccccc1)NC(=O)COc1ccc(C[C@H](NC(=O)[C@H](CCC(=O)O)NC(=O)c2ccc([125I])cc2)C(=O)O)cc1)C(=O)O)C(=O)O [[^125I]26]", "PIP/muscle": "60.91 ± 38.35"}
{"compound": "O=C(O)CC[C@H](NC(=O)N[C@@H](CCCCNC(=O)[C@H](Cc1ccccc1)NC(=O)[C@H](CCC(=O)O)NC(=O)[C@H](CCC(=O)O)NC(=O)c1ccc([125I])cc1)C(=O)O)C(=O)O [[^125I]18]", "PIP/muscle": "25.78 ± 14.13"}
{"compound": "O=C(O)CC[C@H](NC(=O)N[C@@H](CCCCNC(=O)[C@H](Cc1ccccc1)NC(=O)COc1ccc(C[C@H](NC(=O)[C@H](CCC(=O)O)NC(=O)[C@H](CCC(=O)O)NC(=O)c2ccc([125I])cc2)C(=O)O)cc1)C(=O)O)C(=O)O [[^125I]27]", "PIP/muscle": "27.34 ± 10.28"}
{"compound": "O=C(O)CC[C@H](NC(=O)N[C@@H](CCCCNC(=O)[C@H](Cc1ccccc1)NC(=O)[C@H](CCC(=O)O)NC(=O)c1ccc([125I])cc1)C(=O)O)C(=O)O [[^125I]17]", "PIP/muscle": "200.29 ± 221.74"}

----------
Tested on: PIP tumor and PC3 tumor
Assay: Biodistribution of 125I labeled compounds 17, 18, 26 and 27 in tumor bearing nude mice
Type: in vivo
Conditions: 4 h
parameter: Biodistribution: Skin (% ID/g)

{"compound": "O=C(O)CC[C@H](NC(=O)N[C@@H](CCCCNC(=O)[C@H](Cc1ccccc1)NC(=O)[C@H](CCC(=O)O)NC(=O)[C@H](CCC(=O)O)NC(=O)c1ccc([125I])cc1)C(=O)O)C(=O)O [[^125I]18]", "parameter": "Biodistribution: Skin", "unit.text": "% ID/g", "recorded.number": 0.81}
{"compound": "O=C(O)CC[C@H](NC(=O)N[C@@H](CCCCNC(=O)[C@H](Cc1ccccc1)NC(=O)[C@H](CCC(=O)O)NC(=O)c1ccc([125I])cc1)C(=O)O)C(=O)O [[^125I]17]", "parameter": "Biodistribution: Skin", "unit.text": "% ID/g", "recorded.number": 0.11}
{"compound": "O=C(O)CC[C@H](NC(=O)N[C@@H](CCCCNC(=O)[C@H](Cc1ccccc1)NC(=O)COc1ccc(C[C@H](NC(=O)[C@H](CCC(=O)O)NC(=O)c2ccc([125I])cc2)C(=O)O)cc1)C(=O)O)C(=O)O [[^125I]26]", "parameter": "Biodistribution: Skin", "unit.text": "% ID/g", "recorded.number": 1.67}
{"compound": "O=C(O)CC[C@H](NC(=O)N[C@@H](CCCCNC(=O)[C@H](Cc1ccccc1)NC(=O)COc1ccc(C[C@H](NC(=O)[C@H](CCC(=O)O)NC(=O)[C@H](CCC(=O)O)NC(=O)c2ccc([125I])cc2)C(=O)O)cc1)C(=O)O)C(=O)O [[^125I]27]", "parameter": "Biodistribution: Skin", "unit.text": "% ID/g", "recorded.number": 2.03}

Data provenance: patent US20220125959A1
